target entity: T1, Mouse ST2 (mouse, UniProt P14719 27-332, limits assumed)
T1 construct: also called mouse ST2 protein
T1 sequence (looked up): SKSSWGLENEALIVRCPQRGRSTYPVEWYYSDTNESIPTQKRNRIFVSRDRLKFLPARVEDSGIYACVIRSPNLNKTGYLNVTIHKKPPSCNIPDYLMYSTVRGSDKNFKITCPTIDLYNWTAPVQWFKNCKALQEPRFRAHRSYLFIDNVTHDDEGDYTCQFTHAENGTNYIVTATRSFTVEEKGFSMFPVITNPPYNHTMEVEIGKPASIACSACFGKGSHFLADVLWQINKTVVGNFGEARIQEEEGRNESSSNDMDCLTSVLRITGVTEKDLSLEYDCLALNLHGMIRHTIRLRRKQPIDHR
experimental protocol: SPR (Carterra), antibody immobilized, ST2 analyte, 1:1
Item-by-item account of kon
Write it as a number; the unit M⁻¹ s⁻¹ goes unstated.

Completed entries (count: 4):
>>> obs_value("Human ST2 IgG1 Antibody 83 (antibody, V domains shown, IgG1, kappa; also called ST2 Antibody 83) VH: EVQLLESGGGLVKPGGSLRLSCAASGFTFSSYWMSWVRQAPGKGLEWVSAIGTAGDTYYPGSVKGRFTISRDDSKNTLYLQMNSLKTEDTAVYYCAILRRDKVWPFDYWGQGTLVTVSS VL: DIQMTQSPSSLSASVGDRVTITCRASQSISSHLHWYQQKPGKAPKLLIYAASSLQSGVPSRFSGSGSGTDFTLTISSLQPEDFATYYCQQSYSSPVTFGGGTKVEIKR")
140000
>>> obs_value("Human ST2 IgG1 Antibody 86 (antibody, V domains shown, IgG1, kappa; also called ST2 Antibody 86) VH: QVQLVQSGAEVKKPGSSVKVSCKASGGTFSNYAISWVRQAPGQGLEWMGGIIPIFGTANYAQKFQGRVTITADESTSTAYMELSSLRSEDTAVYYCAKDLGGWFNLFDPWGQGTLVTVSS VL: EIVMTQSPATLSVSPGERATLSCRASQGVSSYLAWYQQKPGQAPRLLIYGASTRATGIPARFSGSGSGTEFTLTISSLQSEDFAVYYCQQYRSFPLTFGGGTKVEIKR")
190000
>>> obs_value("Human ST2 IgG1 Antibody 98 (antibody, V domains shown, IgG1, kappa; also called ST2 Antibody 98) VH: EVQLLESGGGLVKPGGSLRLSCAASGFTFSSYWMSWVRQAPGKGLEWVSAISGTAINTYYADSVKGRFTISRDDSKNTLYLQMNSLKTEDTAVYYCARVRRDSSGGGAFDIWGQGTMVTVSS VL: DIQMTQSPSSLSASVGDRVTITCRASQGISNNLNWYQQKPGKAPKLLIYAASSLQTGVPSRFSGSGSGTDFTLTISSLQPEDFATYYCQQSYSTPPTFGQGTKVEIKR")
120000
>>> obs_value("Human ST2 IgG1 Antibody 34 (antibody, V domains shown, IgG1, kappa; also called ST2 Antibody 34) VH: QVQLVQSGAEVKKPGASVKVSCKASGQTFTDYAINWVRQAPGQGLEWMGWMNPNSGNTGYAQKFQGRVTMTRDTSTSTVYMELSSLRSEDTAVYYCARETLEQQLPFDYWGQGTLVTVSS VL: DIQMTQSPSSLSASVGDRVTITCRASQSISSWLAWYQQKPGKAPKLLIYAASTLQSGVPSRFSGSGSGTDFTLTISSLQPEDFATYYCQQYYSTLYTFGQGTKVEIKR")
15000

Input line: Value lookup for kon; key = Human ST2 IgG1 Antibody 89 (antibody, V domains shown, IgG1, kappa; also called ST2 Antibody 89) VH: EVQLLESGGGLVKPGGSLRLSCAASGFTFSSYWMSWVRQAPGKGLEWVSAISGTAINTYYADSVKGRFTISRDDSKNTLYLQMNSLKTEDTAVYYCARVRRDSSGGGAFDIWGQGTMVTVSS VL: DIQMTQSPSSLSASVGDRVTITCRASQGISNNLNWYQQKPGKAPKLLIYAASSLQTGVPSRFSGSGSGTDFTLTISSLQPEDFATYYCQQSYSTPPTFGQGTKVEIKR
Output line: 100000
